Cited source for all entries: the supplement of paper PMC10567573

B1: TRAF3IP2 (parent)
chain: KQGSMNFRFIPVLFPNAKKEHVPT

variants of: B1; test: protein stability index of a GFP-peptide fusion (GPS, HEK-293T) (PSI 1-6); higher = more stable; settings: c terminus: a fixed tail appended;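 further: lentivirally expressed fusions sorted by FACS into six bins by GFP to DsRed ratio, PSI derived from sequencing read proportions per bin multiplied by bin number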
Exercise: for every item that follows, state its recorded protein stability index.

**Q:** Given the entry "T24H" , report its measured protein stability index.
**A:** 1.89

**Q:** Given the entry "V22H" , report its measured protein stability index.
**A:** 1.73

**Q:** Given the entry "P15H" , report its measured protein stability index.
**A:** 1.87

**Q:** Given the entry "L13E" , report its measured protein stability index.
**A:** 2.88

**Q:** Given the entry "H21C" , report its measured protein stability index.
**A:** 2.02

**Q:** Given the entry "F7Y" , report its measured protein stability index.
**A:** 2.59

**Q:** Given the entry "N16Y" , report its measured protein stability index.
**A:** 1.8

**Q:** Given the entry "Q2V" , report its measured protein stability index.
**A:** 1.85

**Q:** Given the entry "G3Y" , report its measured protein stability index.
**A:** 1.33

**Q:** Given the entry "H21R" , report its measured protein stability index.
**A:** 1.72

**Q:** Given the entry "P23S" , report its measured protein stability index.
**A:** 1.88

**Q:** Given the entry "F7G" , report its measured protein stability index.
**A:** 3.01

**Q:** Given the entry "L13R" , report its measured protein stability index.
**A:** 1.93

**Q:** Given the entry "R8F" , report its measured protein stability index.
**A:** 1.61

**Q:** Given the entry "Q2A" , report its measured protein stability index.
**A:** 2.47

**Q:** Given the entry "F14S" , report its measured protein stability index.
**A:** 2.42

**Q:** Given the entry "K19T" , report its measured protein stability index.
**A:** 1.75

**Q:** Given the entry "Q2F" , report its measured protein stability index.
**A:** 1.87

**Q:** Given the entry "K18W" , report its measured protein stability index.
**A:** 1.65

**Q:** Given the entry "S4N" , report its measured protein stability index.
**A:** 2.26

**Q:** Given the entry "V22E" , report its measured protein stability index.
**A:** 2.19

**Q:** Given the entry "A17P" , report its measured protein stability index.
**A:** 2.07

**Q:** Given the entry "K18C" , report its measured protein stability index.
**A:** 1.71

**Q:** Given the entry "P11L" , report its measured protein stability index.
**A:** 2.75

**Q:** Given the entry "P11N" , report its measured protein stability index.
**A:** 1.7

**Q:** Given the entry "K1S" , report its measured protein stability index.
**A:** 2.16

**Q:** Given the entry "P11V" , report its measured protein stability index.
**A:** 2.91

**Q:** Given the entry "M5C" , report its measured protein stability index.
**A:** 1.98

**Q:** Given the entry "T24C" , report its measured protein stability index.
**A:** 1.94

**Q:** Given the entry "F9P" , report its measured protein stability index.
**A:** 3.22

**Q:** Given the entry "G3D" , report its measured protein stability index.
**A:** 2.02

**Q:** Given the entry "P23I" , report its measured protein stability index.
**A:** 1.77

**Q:** Given the entry "F14W" , report its measured protein stability index.
**A:** 2.46

**Q:** Given the entry "N16K" , report its measured protein stability index.
**A:** 1.72

**Q:** Given the entry "F14N" , report its measured protein stability index.
**A:** 2.06

**Q:** Given the entry "P11T" , report its measured protein stability index.
**A:** 1.86

**Q:** Given the entry "K19W" , report its measured protein stability index.
**A:** 1.65

**Q:** Given the entry "L13Y" , report its measured protein stability index.
**A:** 1.82

**Q:** Given the entry "F9H" , report its measured protein stability index.
**A:** 3.38

**Q:** Given the entry "K19E" , report its measured protein stability index.
**A:** 1.99

**Q:** Given the entry "N6R" , report its measured protein stability index.
**A:** 1.66

**Q:** Given the entry "V22F" , report its measured protein stability index.
**A:** 2.16

**Q:** Given the entry "V12H" , report its measured protein stability index.
**A:** 2.39

**Q:** Given the entry "K18Y" , report its measured protein stability index.
**A:** 1.84

**Q:** Given the entry "K1G" , report its measured protein stability index.
**A:** 2.19

**Q:** Given the entry "F14Y" , report its measured protein stability index.
**A:** 1.95

**Q:** Given the entry "F9R" , report its measured protein stability index.
**A:** 2.84

**Q:** Given the entry "E20Y" , report its measured protein stability index.
**A:** 1.77

**Q:** Given the entry "L13I" , report its measured protein stability index.
**A:** 1.75

**Q:** Given the entry "V22N" , report its measured protein stability index.
**A:** 2.23

**Q:** Given the entry "F14V" , report its measured protein stability index.
**A:** 2.3

**Q:** Given the entry "E20N" , report its measured protein stability index.
**A:** 2.15

**Q:** Given the entry "K18F" , report its measured protein stability index.
**A:** 1.77

**Q:** Given the entry "F7Q" , report its measured protein stability index.
**A:** 3.19

**Q:** Given the entry "V22D" , report its measured protein stability index.
**A:** 2.89

**Q:** Given the entry "Q2D" , report its measured protein stability index.
**A:** 1.8

**Q:** Given the entry "F7D" , report its measured protein stability index.
**A:** 2.91

**Q:** Given the entry "G3T" , report its measured protein stability index.
**A:** 2.44

**Q:** Given the entry "T24V" , report its measured protein stability index.
**A:** 1.76

**Q:** Given the entry "H21M" , report its measured protein stability index.
**A:** 2.13

**Q:** Given the entry "N6K" , report its measured protein stability index.
**A:** 1.6

**Q:** Given the entry "R8H" , report its measured protein stability index.
**A:** 2.41

**Q:** Given the entry "R8C" , report its measured protein stability index.
**A:** 2.52

**Q:** Given the entry "M5D" , report its measured protein stability index.
**A:** 3.35

**Q:** Given the entry "F14Q" , report its measured protein stability index.
**A:** 2.71

**Q:** Given the entry "E20C" , report its measured protein stability index.
**A:** 1.85

**Q:** Given the entry "A17M" , report its measured protein stability index.
**A:** 2.08

**Q:** Given the entry "P11A" , report its measured protein stability index.
**A:** 2.39

**Q:** Given the entry "N16C" , report its measured protein stability index.
**A:** 1.89

**Q:** Given the entry "G3C" , report its measured protein stability index.
**A:** 2.06

**Q:** Given the entry "E20M" , report its measured protein stability index.
**A:** 2.3

**Q:** Given the entry "K1Y" , report its measured protein stability index.
**A:** 2.57

**Q:** Given the entry "K18M" , report its measured protein stability index.
**A:** 1.76

**Q:** Given the entry "S4K" , report its measured protein stability index.
**A:** 1.74

**Q:** Given the entry "P15Y" , report its measured protein stability index.
**A:** 2.04

**Q:** Given the entry "A17I" , report its measured protein stability index.
**A:** 1.8

**Q:** Given the entry "N16W" , report its measured protein stability index.
**A:** 2

**Q:** Given the entry "V12T" , report its measured protein stability index.
**A:** 1.86

**Q:** Given the entry "F7C" , report its measured protein stability index.
**A:** 2.38

**Q:** Given the entry "S4P" , report its measured protein stability index.
**A:** 2.98

**Q:** Given the entry "I10G" , report its measured protein stability index.
**A:** 2.76

**Q:** Given the entry "F14A" , report its measured protein stability index.
**A:** 1.88

**Q:** Given the entry "V12A" , report its measured protein stability index.
**A:** 2.31

**Q:** Given the entry "A17F" , report its measured protein stability index.
**A:** 1.64

**Q:** Given the entry "K19A" , report its measured protein stability index.
**A:** 1.66

**Q:** Given the entry "V12Y" , report its measured protein stability index.
**A:** 1.97

**Q:** Given the entry "A17C" , report its measured protein stability index.
**A:** 1.97

**Q:** Given the entry "K18V" , report its measured protein stability index.
**A:** 1.65

**Q:** Given the entry "A17H" , report its measured protein stability index.
**A:** 1.92

**Q:** Given the entry "L13K" , report its measured protein stability index.
**A:** 2.06

**Q:** Given the entry "N16T" , report its measured protein stability index.
**A:** 1.7
